Origin of measurements: PubChem BioAssay (NCI)

# System: M14 melanoma
# Test details: NCI tumour cell line growth inhibition, 48 h; in the data active = GI50 below about 0.43 µM; inactive = the rest
Lab note: assign the record to one of T for active, F for inactive

[
  {
    "Test smiles": "CC[C@H](C)[C@H](NC(=O)c1cccn1C)C(=O)N(C)[C@H](C[C@@H](OC(C)=O)c1nc(C(=O)N[C@@H](Cc2ccccc2)C[C@H](C)C(=O)OC)cs1)C(C)C",
    "Experimental target": "M14 melanoma",
    "Category label": "T"
  },
  {
    "Test smiles": "COc1cc2c3c(n(CCCNCCCN)c(=O)c2cc1OC)-c1cc2c(cc1C3=O)OCO2",
    "Experimental target": "M14 melanoma",
    "Category label": "F"
  }
]

Outcome logged for `C1=CCCC=CCC1.C[PH+](C)C.C[PH+](C)C.C[PH+](C)C.[Cl-].[Ir]` in this assay: F

Could you kindly confirm the outcome this assay logged for `CC/C(=C/c1ccc(OC)cc1OC)[N+](=O)[O-]` ? F

* * *

# System: A498 renal
# Test details: NCI tumour cell line growth inhibition, 48 h
As shown below, each of these compounds has a reported GI50 value.

[
  {
    "Compound": "N#Cc1cccc(C2C3=C(COC3=O)N(CCO)c3cc4c(cc32)OCO4)c1 (stereo not given)",
    "Experimental target": "A498 renal",
    "Reported result": "1.2 µM"
  },
  {
    "Compound": "c1ccc2c(c1)cc1ccc3cccc4ccc2c1c34",
    "Experimental target": "A498 renal",
    "Reported result": "> 100 µM"
  },
  {
    "Compound": "Nc1cccc2c1C(=O)c1cccc(NC(=O)c3ccccc3)c1C2=O",
    "Experimental target": "A498 renal",
    "Reported result": "0.306 µM"
  },
  {
    "Compound": "CCN(Cc1c(F)cccc1Cl)c1ccc(CO)c(Cl)c1",
    "Experimental target": "A498 renal",
    "Reported result": "< 0.0146 µM"
  },
  {
    "Compound": "CC1(C)CCC[C@]2(C)c3ccccc3C(=O)CC12 (stereo not given in full)",
    "Experimental target": "A498 renal",
    "Reported result": "26 µM"
  }
]

Shifting focus to the compound that follows.
// sample COc1cc(/C=C2\CCCC3=C2N=C2SC(C)=NN2C3c2cc(OC)c(OC)c(OC)c2)cc(OC)c1OC (stereo not given) , its GI50 was 0.153 µM

* * *

# Tested on: SW-620 colon
# Test details: NCI tumour cell line growth inhibition, 48 h
Quantity name: TGI

Example entries and their recorded answers appear below.
[
  {
    "Compound": "CCOC(=O)c1c(-c2ccccc2)c(OC)cn1C",
    "Reported result": "> 10 µM"
  },
  {
    "Compound": "CC[PH+](CC)CC.[Cl][Au]",
    "Reported result": "1.98 µM"
  },
  {
    "Compound": "CO[P@@]1(=O)O[C@@H](c2ccccc2)[C@H](O)[C@]1(O)c1ccccc1",
    "Reported result": "> 100 µM"
  },
  {
    "Compound": "COc1cc2nccc(Oc3ccc(NC(=O)c4cn(C(C)C)c(=O)n(-c5ccc(F)cc5)c4=O)cc3F)c2cc1OC",
    "Reported result": "> 100 µM"
  },
  {
    "Compound": "O=C1CSC(c2c[nH]c3ccccc23)N1c1ccc(Cl)cc1Cl (stereo not drawn)",
    "Reported result": "> 100 µM"
  }
]

Next item in the queue.
Recorded result, `O/N=C/c1ccc(O)c(O)c1` , TGI: 35.3 µM

* * *

# System: LXFL 529 NSCLC
# Test details: NCI tumour cell line growth inhibition, 48 h
Quantity name: TGI

Examples with their reported TGI follow.
[
  {
    "Compound": "CCC[CH2][Sn]1([CH2]CCC)[S]CC[N]1S(=O)(=O)c1ccc(C)cc1",
    "Experimental target": "LXFL 529 NSCLC",
    "Quantity name": "TGI",
    "Reported result": "1.12 µM"
  },
  {
    "Compound": "C=C1C[C@@H]2C[C@@H](C)CC(O)[C@]2(CCCN)C1O (stereo partly specified)",
    "Experimental target": "LXFL 529 NSCLC",
    "Quantity name": "TGI",
    "Reported result": "> 100 µM"
  },
  {
    "Compound": "COC(=O)C1CCc2nnc(-c3ccccc3)n21 (stereo unspecified)",
    "Experimental target": "LXFL 529 NSCLC",
    "Quantity name": "TGI",
    "Reported result": "> 100 µM"
  },
  {
    "Compound": "COc1ccc2c(c1)CN1CCc3c(cc(OC)c(OC)c3OC)C1C2 (stereo unspecified)",
    "Experimental target": "LXFL 529 NSCLC",
    "Quantity name": "TGI",
    "Reported result": "> 100 µM"
  },
  {
    "Compound": "CO[C@@]1(c2ccccc2)O[C@H]2OCCC2[C@H]1c1ccc(Cl)cc1 (stereo partly specified)",
    "Experimental target": "LXFL 529 NSCLC",
    "Quantity name": "TGI",
    "Reported result": "> 100 µM"
  }
]

Notebook: `Cc1ncc(CI)c(CI)c1O` , TGI read as > 100 µM

* * *

Readings of TGI for the listed compounds
# Tested on: MCF7 breast
# Test details: NCI tumour cell line growth inhibition, 48 h
A number alone suffices; assume µM.

[
  {
    "Compound": "O=C(/C=C/C12c3ccccc3C(c3ccccc31)C1C(=O)NC(=O)C12)c1ccccc1 (stereo unspecified)",
    "TGI, µM": 7.6
  },
  {
    "Compound": "CC/C(=C/c1ccc(OC)cc1OC)[N+](=O)[O-]",
    "TGI, µM": 3.92
  }
]

The reported MCF7 breast TGI of `CCOC(=O)[C@@H](Cc1ccc(CCl)cc1)NC(C)=O` is 83.5

* * *

Property: TGI; scope: individual compounds
# Tested on: T-47D breast
# Test details: NCI tumour cell line growth inhibition, 48 h

Recorded results for 3 compounds are shown here.
[
  {
    "Compound": "CNC(=O)c1cncc(/C=C/c2ccccc2Cl)c1",
    "Experimental target": "T-47D breast",
    "TGI": "> 25 µM"
  },
  {
    "Compound": "CC(=O)Oc1ccn2nc(C)c(Br)c2c1",
    "Experimental target": "T-47D breast",
    "TGI": "> 100 µM"
  },
  {
    "Compound": "CSc1ccc(/C=C2\\N=C(c3ccccc3)N(c3nc4cc(Cl)c(F)cc4s3)C2=O)cc1",
    "Experimental target": "T-47D breast",
    "TGI": "> 100 µM"
  }
]

So for `Nc1c(N2CCOCC2)c(=O)nc2[nH]/c(=C\c3ccccc3O)c(=O)n12` , the logged TGI turned out to be > 100 µM

According to the records, this compound `Cc1ccc(C(=O)NC2CC2)cc1-c1ccc2[nH]ncc2c1` displays TGI of > 25 µM

* * *

# System: NCI-H23 lung
# Test details: NCI tumour cell line growth inhibition, 48 h
Some compounds, each annotated with its measured TGI.

[
  {
    "Compound": "COc1cc2nccc(Oc3ccc(NC(=O)c4cn(C(C)C)c(=O)n(-c5ccc(F)cc5)c4=O)cc3F)c2cc1OC",
    "TGI": "> 100 µM"
  },
  {
    "Compound": "C/C(=C\\CSCC(N)C(=O)O)CC/C=C(\\C)CNc1ccccc1 (stereo unspecified)",
    "TGI": "> 100 µM"
  },
  {
    "Compound": "O=c1c2cc([N+](=O)[O-])ccc2oc2nc3n(c(=O)c12)CCCS3",
    "TGI": "> 100 µM"
  },
  {
    "Compound": "NC(Cc1ccccc1)c1nccs1 (stereo unspecified)",
    "TGI": "> 100 µM"
  },
  {
    "Compound": "O=C1C=CC(=O)c2c(O)c(N3CCC[C@@H]3CO)c(Cl)c(O)c21",
    "TGI": "3.55 µM"
  }
]

Recorded TGI (compound `CSc1nc(=O)c2nc(-c3cccs3)c(-c3cccs3)nc2n1C` ): > 100 µM

Note to self: TGI recorded for `CC(=O)Oc1ccc2c(-c3ccccc3)c(Oc3ccc(Cl)cc3)c(=O)oc2c1` was 44.6 µM

In plain terms, COC(=O)CC[C@]12C[C@]13CC[C@]1(C)C4C(C)C[C@]5(CC(C)C(=O)O5)OC4CC1(C)C3CCC2C(C)(C)O (stereo partly specified) has a documented TGI of > 100 µM

// `CC(C)=C/C(CC(O)(C(F)(F)F)C(F)(F)F)=N\O` : TGI value = > 100 µM

Lookup result for `CS(=O)(=O)N(c1cc(-c2ccc3ncnc(Nc4ccc(F)c(Cl)c4)c3c2)cnc1Cl)S(C)(=O)=O` ; measured TGI: 5.15 µM

According to the records, this compound `CCN(Cc1c(F)cccc1Cl)c1ccc(CO)c(Cl)c1` displays TGI of 33.8 µM

Field TGI (entry `CNC(=O)c1cncc(/C=C/c2ccccc2Cl)c1` ) reads > 25 µM

For this compound ( `Nc1cccc2c1C(=O)c1cccc(NC(=O)c3ccccc3)c1C2=O` ), measured TGI is > 100 µM

Value of TGI reported for the compound `O=C[C@@H](CO)O[C@H](C=O)n1cnc2c(=O)[nH]cnc21` is 1530 µM

// sample `COc1cc2cnc3c4cc(OCc5ccccc5)ccc4ccc3c2cc1OC` , its TGI was 75.7 µM

Value of measured TGI for the entry CC1(C)C=C(/C=C2/N(S(=O)(=O)C(F)(F)F)C(/C=C3/N(S(=O)(=O)C(F)(F)F)C(C)(C#N)CC3(C)C)=CC2(C)C)N=C1/C=C1/CC(C)(C)C(=O)N1 (stereo unspecified) : > 100 µM

Lookup result for COC(=O)C1CCc2nnc(-c3ccccc3)n21 (stereo unspecified) ; measured TGI: > 100 µM

Given item `COc1ccc2c(c1)CCc1c-2n[nH]c1-c1[nH]nc2c1CCc1cc(OC)ccc1-2` , the value recorded as its TGI is > 100 µM

Query `COC(=O)N/N=C(\C)CC(=O)Nc1ccc(Cl)cc1` yields TGI of > 100 µM

For reference, reported TGI for `Cc1cccc2c1[nH]c(=O)c1c3ccccc3cn21` stands at 38.6 µM

Per the record, C=C1C[C@@H]2C[C@@H](C)CC(O)[C@]2(CCCN)C1O (stereo partly specified) has TGI of > 100 µM
